Exercise: for every item that follows, state its recorded melting point.
Give bare numbers, in °C.

Please review the following examples before continuing.
molecule	melting point / °C
Nc1ccc2[nH]c(C(F)(F)F)nc2c1	188
Cc1ccnc(NS(=O)(=O)c2ccc(N)cc2)n1	234
COC(=O)CCC(C)C1CCC2C3C(OC(C)=O)CC4CC(=O)CCC4(C)C3CC(=O)C12C (stereo not drawn) [methyl 7-(acetyloxy)-3,12-dioxocholan-24-oate]	166
Cl/C=C\Cl [(Z)-1,2-Dichloroethene]	-80
CCCCCCCCCCCCCCCC [Hexadecane]	18

// each molecule listed below needs its melting point
1. O=C(O)/C(=C/c1cccc2ccccc12)c1ccccc1
2. O=C1OC(=O)[C@H]2[C@@H]1[C@@H]1C=C[C@H]2O1 [exo-7-oxabicyclo[2.2.1]hept-5-ene-2,3-dicarboxylic anhydride]

Data returned:
[161, 119]

Data request: Consider the molecule shown here: `CC(=O)Oc1cccc(-c2ccccc2)c1` What is its recorded melting point?
Data returned: 34
